Below: a set of entries, each annotated with reported viability, T/C.
- Tested on: 186277-243-T-J2-PDC complex spheroid viability
- test_summary: Anticancer human tumor 186277-243-T-J2-PDC patient-derived colon adenocarcinoma cell line growth inhibition [GQUAD]
- details: second compound 1 µM; first compound 3.16 µM; stronger effect = lower value
Reply numerically in %, unit not repeated.

# annotated cases, reported viability, T/C shown
Nc1ccn(C2OC(CO)C(O)C2(F)F)c(=O)n1 (stereo not given) + Cc1[nH]c2ccc(F)cc2c1-c1nc2c3cccnc3c3ncccc3c2[nH]1
11.7
C#Cc1c(F)ccc2cc(O)cc(-c3ncc4c(N5CC6CCC(C5)N6)nc(OCC56CCCN5CC(F)C6)nc4c3F)c12 (stereo not given) + CN(C)c1ccc(Nc2c3ccc(NC(=O)CCN4CCCC4)cc3nc3cc(NC(=O)CCN4CCCC4)ccc23)cc1
14.3
CCCS(=O)(=O)Nc1ccc(F)c(C(=O)c2c[nH]c3ncc(-c4ccc(Cl)cc4)cc23)c1F + Cc1[nH]c2ccc(F)cc2c1-c1nc2c3cccnc3c3ncccc3c2[nH]1
103

Field viability, T/C (entry CC(C)(O)C1CCC(Nc2ccc3ncc(-c4cccc(C(F)(F)F)c4)n3n2)CC1 (stereo not given) + CN(C)c1ccc(Nc2c3ccc(NC(=O)CCN4CCCC4)cc3nc3cc(NC(=O)CCN4CCCC4)ccc23)cc1 ) reads 56.2

Field viability, T/C (entry O=C(c1cc(Cc2n[nH]c(=O)c3ccccc23)ccc1F)N1CCN(C(=O)C2CC2)CC1 + Cc1[nH]c2ccc(F)cc2c1-c1nc2c3cccnc3c3ncccc3c2[nH]1 ) reads 89.2

###

- System: 186277-243-T-J2-PDC complex spheroid viability
- test_summary: Anticancer human tumor 186277-243-T-J2-PDC cell line growth inhibition [GQUAD];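 further: spheroids exposed to drugs for 7 days; 100% = DMSO vehicle control viability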
- details: second compound 0.1 µM; first compound 0.1 µM; stronger effect = lower value
- From the text: DNA G-quadruplex Stabilizer Agents in Combinations in Complex Spheroids A high-throughput screen of multi-cell type tumor spheroids was designed to identify active combinations of DNA G-quadruplex stabilizer agents and targeted small molecules. […] Compounds. […] If the clinical Cmax for an agent had not been determined, the highest concentration tested was 10 microM. […]
Below: a set of entries, each annotated with reported viability, T/C.
Reply numerically in %, unit not repeated.

# annotated cases, reported viability, T/C shown
C=CCn1c(=O)c2cnc(Nc3ccc(N4CCN(C)CC4)cc3)nc2n1-c1cccc(C(C)(C)O)n1 + Cc1[nH]c2ccc(F)cc2c1-c1nc2c3cccnc3c3ncccc3c2[nH]1
87.8
CC(C)(O)C1CCC(Nc2ccc3ncc(-c4cccc(C(F)(F)F)c4)n3n2)CC1 (stereo not drawn) + CN(C)c1ccc(Nc2c3ccc(NC(=O)CCN4CCCC4)cc3nc3cc(NC(=O)CCN4CCCC4)ccc23)cc1
89.1

// next entry
Measured viability, T/C for this entry O=C(NO)c1cnc(N2CCN(S(=O)(=O)c3ccc4ccccc4c3)CC2)nc1 + CN(C)c1ccc(Nc2c3ccc(NC(=O)CCN4CCCC4)cc3nc3cc(NC(=O)CCN4CCCC4)ccc23)cc1 on 186277-243-T-J2-PDC complex spheroid viability: 91.3

###

- Test system: 186277-243-T-J2-PDC complex spheroid viability
- test_summary: Anticancer human tumor 186277-243-T-J2-PDC cell line growth inhibition [GQUAD];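 further: spheroids exposed to drugs for 7 days; 100% = DMSO vehicle control viability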
- details: second compound 0.316 µM; first compound 10 µM; stronger effect = lower value
reported_metric: viability, T/C (%)
Reply numerically in %, unit not repeated.

# annotated cases, reported viability, T/C shown
COc1ccc([C@@H](O)c2cc(-c3ncnc4cc(N5CCOCC5)ccc34)c(F)cc2Cl)nn1 + Cc1[nH]c2ccc(F)cc2c1-c1nc2c3cccnc3c3ncccc3c2[nH]1
30.9
COc1cccc2c1C(=O)c1c(O)c3c(c(O)c1C2=O)CC(O)(C(=O)CO)CC3OC1CC(N)C(O)C(C)O1 (stereo not given) + Cc1cnc(CNC(=O)c2c(=O)c3ccc(N4CCCN(C)CC4)nc3n3c2sc2ccccc23)cn1
0.15
Nc1ccn(C2OC(CO)C(O)C2(F)F)c(=O)n1 (stereo not given) + CN(C)c1ccc(Nc2c3ccc(NC(=O)CCN4CCCC4)cc3nc3cc(NC(=O)CCN4CCCC4)ccc23)cc1
8.47
C=CC(=O)N1CCN(c2nc(=O)n(-c3c(C)ccnc3C(C)C)c3nc(-c4c(O)cccc4F)c(F)cc23)C(C)C1 (stereo not given) + CN(C)c1ccc(Nc2c3ccc(NC(=O)CCN4CCCC4)cc3nc3cc(NC(=O)CCN4CCCC4)ccc23)cc1
95.2
CC(C)n1c(=O)n(C)c2cnc3cc(F)c(-c4ccc(OCCCN5CCCCC5)nc4)cc3c21 + Cc1cnc(CNC(=O)c2c(=O)c3ccc(N4CCCN(C)CC4)nc3n3c2sc2ccccc23)cn1
41.2
COc1cc(C2c3cc4c(cc3C(OC3OC5COC(C)OC5C(O)C3O)C3COC(=O)C23)OCO4)cc(OC)c1O (stereo not given) + Cc1[nH]c2ccc(F)cc2c1-c1nc2c3cccnc3c3ncccc3c2[nH]1
26.2
COc1ccc([C@@H](O)c2cc(-c3ncnc4cc(N5CCOCC5)ccc34)c(F)cc2Cl)nn1 + CN(C)c1ccc(Nc2c3ccc(NC(=O)CCN4CCCC4)cc3nc3cc(NC(=O)CCN4CCCC4)ccc23)cc1
26.3
Cc1cccc(N(C)C(=O)C2C(O)CCN2c2nc(C)cc(C(F)(F)F)c2C#N)c1 (stereo not given) + Cc1[nH]c2ccc(F)cc2c1-c1nc2c3cccnc3c3ncccc3c2[nH]1
104
C#Cc1c(F)ccc2cc(O)cc(-c3ncc4c(N5CC6CCC(C5)N6)nc(OCC56CCCN5CC(F)C6)nc4c3F)c12 (stereo not given) + Cc1[nH]c2ccc(F)cc2c1-c1nc2c3cccnc3c3ncccc3c2[nH]1
3.69

// next entry
Field viability, T/C (entry CCCS(=O)(=O)Nc1ccc(F)c(C(=O)c2c[nH]c3ncc(-c4ccc(Cl)cc4)cc23)c1F + CN(C)c1ccc(Nc2c3ccc(NC(=O)CCN4CCCC4)cc3nc3cc(NC(=O)CCN4CCCC4)ccc23)cc1 ) reads 27.7

Origin of values: PubChem BioAssay AID2060512
